Origin of measurements: the supplement of paper PMC11875167

assay: observed amide hydrogen exchange rate constant kobs (stretched exponential fit, FD-normalized) (s^-1); higher = faster H/D exchange (less protection); conditions: pH 3 (pH read); temperature: 20 °C; D2O: 88%
parameter.measured: observed amide hydrogen exchange rate constant kobs
Give the figure only, with no unit attached.

Per the records, this substance ( IDFYFDENPYFENK ) has observed amide hydrogen exchange rate constant kobs equal to 0.00186

Per the records, this substance ( VMVQPINLIFR ) has observed amide hydrogen exchange rate constant kobs equal to 0.000387

Per the records, this substance ( VTLDWAK ) has observed amide hydrogen exchange rate constant kobs equal to 0.00095

Per the records, this substance ( AELNEFLTR ) has observed amide hydrogen exchange rate constant kobs equal to 0.00113

Per the records, this substance ( EMLQQSK ) has observed amide hydrogen exchange rate constant kobs equal to 0.00166

Per the records, this substance ( FAQPGSFEYEYAMR ) has observed amide hydrogen exchange rate constant kobs equal to 0.00134
